The measurements presented in this section are drawn from ChEMBL document CHEMBL5532694.

Tgt: Stimulator of interferon genes protein (Homo sapiens, UniProt Q86WV6)
Sequence (Q86WV6 whole entry): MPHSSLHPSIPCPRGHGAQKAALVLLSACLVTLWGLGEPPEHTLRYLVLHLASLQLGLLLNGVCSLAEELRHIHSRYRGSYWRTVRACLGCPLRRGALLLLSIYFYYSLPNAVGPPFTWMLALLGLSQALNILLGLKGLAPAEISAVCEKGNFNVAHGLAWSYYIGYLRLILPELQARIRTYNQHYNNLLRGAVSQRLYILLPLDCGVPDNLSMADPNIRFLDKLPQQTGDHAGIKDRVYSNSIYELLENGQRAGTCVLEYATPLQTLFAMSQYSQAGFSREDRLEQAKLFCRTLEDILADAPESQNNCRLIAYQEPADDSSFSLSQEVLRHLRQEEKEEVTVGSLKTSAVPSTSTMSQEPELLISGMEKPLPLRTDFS
Experiment description: Agonist activity at STING in human THP1-Dual KI-hSTING-R232 cells assessed as IRF activation incubated for 24 hrs by QUANTI-Luc reagent based luminescence assay
Assay type: cell-based
Readout: EC50

Smiles representation	EC50
Nc1nc2c(ncn2[C@@H]2O[C@@H]3COP(=O)(O)O[C@H]4C[C@H](n5cnc6c(N)ncnc65)O[C@@H]4CSP(=O)(O)O[C@@H]2[C@@H]3O)c(=O)[nH]1	16.4 µM

(Q) For Stimulator of interferon genes protein (Homo sapiens, UniProt Q86WV6), give the measured EC50 of the entry CCN(CC)CC.CCN(CC)CC.Nc1nc2c(ncn2[C@@H]2O[C@@H]3COP(=O)(O)O[C@H]4[C@@H](O)[C@H](n5cnc6c(N)ncnc65)O[C@@H]4CSP(=O)(O)O[C@@H]2[C@@H]3O)c(=O)[nH]1
(A) 27.4 µM
